# ASSAY PROTOCOL: AUC (0 to infinity) in Fischer 344 rat at 1 mg/kg, iv through bolus administration
# Type: ADME, organism-based
# Design: dose 1 mg/kg, time infinity, route intravenous
# RUN CONDITIONS: in vivo
MEASURED METRIC: AUC(0-inf) (ng·h/mL)

>>> df
                         compound_structure  measured_metric  result_number
0  CC(C)(C)C#Cc1cc(N(CC(=O)N2CCOCC2)C(=O)[C@H]2CC[C@H](C)CC2)c(C(=O)O)s1       AUC(0-inf)           1580

###

# ASSAY PROTOCOL: AUC (0 to infinity) in Sprague-Dawley rat at 3 mg/kg, po
# Type: ADME, organism-based
# Set-up: dose 3 mg/kg, route oral, time infinity
# RUN CONDITIONS: in vivo
MEASURED METRIC: AUC(0-inf) (µg·h/mL)

>>> print(df.to_string())
                         compound_structure  measured_metric  measurement_units  result_number
0  CC(C)(C)C#Cc1cc(N(CC(=O)N2CCOCC2)C(=O)[C@H]2CC[C@H](C)CC2)c(C(=O)O)s1       AUC(0-inf)            µg·h/mL           8.86

###

# ASSAY PROTOCOL: Oral bioavailability in dog at 3 mg/kg
# Type: ADME, organism-based, Canis lupus familiaris
# RUN CONDITIONS: in vivo
MEASURED METRIC: bioavailability (%)

                         compound_structure  result_number
0  CC(C)(C)C#Cc1cc(N(CC(=O)N2CCOCC2)C(=O)[C@H]2CC[C@H](C)CC2)c(C(=O)O)s1           57.3

###

# ASSAY PROTOCOL: Protein binding in human liver at 1 uM
# Format: ADME, tissue-based
# RUN CONDITIONS: read-out: PB (converted)
MEASURED METRIC: fraction unbound at 1 µM

                         compound_structure           measured_metric  result
0  CC(C)(C)C#Cc1cc(N(CC(=O)N2CCOCC2)C(=O)[C@H]2CC[C@H](C)CC2)c(C(=O)O)s1  fraction unbound at 1 µM   0.153

###

# ASSAY PROTOCOL: Half life in dog at 3 mg/kg, po
# Format: ADME, organism-based, Canis lupus familiaris
# RUN CONDITIONS: in vivo
MEASURED METRIC: half-life

                         compound_structure  result
0  CC(C)(C)C#Cc1cc(N(CC(=O)N2CCOCC2)C(=O)[C@H]2CC[C@H](C)CC2)c(C(=O)O)s1   6.6 h

###

# ASSAY PROTOCOL: Metabolic stability in dog liver microsomal S9 fraction assessed as compound remaining at 1 uM after 2 hrs in presence of NADPH/UDPGA
# Assay type: ADME, subcellular, Canis lupus familiaris
# RUN CONDITIONS: read-out: Stability
MEASURED METRIC: remaining at 2 h, 1 µM

                         compound_structure  result
0  CC(C)(C)C#Cc1cc(N(CC(=O)N2CCOCC2)C(=O)[C@H]2CC[C@H](C)CC2)c(C(=O)O)s1     82%
